So I've got a bunch of compounds here, and I need their viscosity values.
conditions: 308.15 K; 101.33 kPa; Liquid
Form entry: value (mPa·s) — number only.

Entry CC/C=C\C/C=C\C/C=C\CCCCCCCC(=O)OC [methyl (Z,Z,Z)-9,12,15-octadecatrienoate] ; viscosity = 3.341

Entry CCCCCCCC/C=C\CCCCCCCCCCCC(=O)OC [methyl (Z)-13-docosenoate] ; viscosity = 6.917

Entry CCCCCC/C=C\CCCCCCCC(=O)OC [methyl (Z)-9-hexadecenoate] ; viscosity = 2.943

Entry CCCCCCCC/C=C\CCCCCCCCCC(=O)OC [methyl cis-11-eicosenoate] ; viscosity = 5.738

Entry CCCCC/C=C\C/C=C\CCCCCCCC(=O)OCC [ethyl linoleate] ; viscosity = 3.854

Entry CC/C=C\C/C=C\C/C=C\CCCCCCCC(=O)OCC [ethyl 9,12,15-octadecatrienoate] ; viscosity = 3.258

====

settings: 288.15 K; 101.33 kPa; Liquid
measure: viscosity (mPa·s)
Form entry: value (mPa·s) — number only.

Entry CCCCC/C=C\C/C=C\CCCCCCCC(=O)OCC [ethyl linoleate] ; viscosity = 6.165

Entry CC/C=C\C/C=C\C/C=C\CCCCCCCC(=O)OCC [ethyl 9,12,15-octadecatrienoate] ; viscosity = 4.921

Entry CCCCCC/C=C\CCCCCCCC(=O)OC [methyl (Z)-9-hexadecenoate] ; viscosity = 4.662

Entry CCCCCCCC/C=C\CCCCCCCCCCCC(=O)OC [methyl (Z)-13-docosenoate] ; viscosity = 12.56

Entry CC/C=C\C/C=C\C/C=C\CCCCCCCC(=O)OC [methyl (Z,Z,Z)-9,12,15-octadecatrienoate] ; viscosity = 5.003

Entry CCCCCCCC/C=C\CCCCCCCCCC(=O)OC [methyl cis-11-eicosenoate] ; viscosity = 10.13

====

settings: 278.15 K; 101.33 kPa; Liquid
So I've got a bunch of compounds here, and I need their viscosity values.
Form entry: value (mPa·s) — number only.

Entry CCCCCCCC/C=C\CCCCCCCCCC(=O)OC [methyl cis-11-eicosenoate] ; viscosity = 14.34

Entry CCCCC/C=C\C/C=C\CCCCCCCC(=O)OCC [ethyl linoleate] ; viscosity = 8.188

Entry CCCCCCCC/C=C\CCCCCCCCCCCC(=O)OC [methyl (Z)-13-docosenoate] ; viscosity = 18.09

Entry CC/C=C\C/C=C\C/C=C\CCCCCCCC(=O)OCC [ethyl 9,12,15-octadecatrienoate] ; viscosity = 6.282

Entry CCCCCC/C=C\CCCCCCCC(=O)OC [methyl (Z)-9-hexadecenoate] ; viscosity = 6.169

Entry CC/C=C\C/C=C\C/C=C\CCCCCCCC(=O)OC [methyl (Z,Z,Z)-9,12,15-octadecatrienoate] ; viscosity = 6.361

====

So I've got a bunch of compounds here, and I need their viscosity values.
conditions: 313.15 K; 101.33 kPa; Liquid
Form entry: value (mPa·s) — number only.

Entry CC/C=C\C/C=C\C/C=C\CCCCCCCC(=O)OCC [ethyl 9,12,15-octadecatrienoate] ; viscosity = 2.975

Entry CCCCCCCC/C=C\CCCCCCCCCCCC(=O)OC [methyl (Z)-13-docosenoate] ; viscosity = 5.958

Entry CC/C=C\C/C=C\C/C=C\CCCCCCCC(=O)OC [methyl (Z,Z,Z)-9,12,15-octadecatrienoate] ; viscosity = 2.925

Entry CCCCCC/C=C\CCCCCCCC(=O)OC [methyl (Z)-9-hexadecenoate] ; viscosity = 2.616

Entry CCCCCCCC/C=C\CCCCCCCCCC(=O)OC [methyl cis-11-eicosenoate] ; viscosity = 5.08

Entry CCCCC/C=C\C/C=C\CCCCCCCC(=O)OCC [ethyl linoleate] ; viscosity = 3.406

====

settings: 318.15 K; 101.33 kPa; Liquid; Vibrating tube method
measure: mass density (kg/m3)
Form entry: value (kg/m3) — number only.

Entry CCCCCC/C=C\CCCCCCCC(=O)OC [methyl (Z)-9-hexadecenoate] ; mass density = 850

Entry CCCCCCCC/C=C\CCCCCCCCCCCC(=O)OC [methyl (Z)-13-docosenoate] ; mass density = 853

Entry CC/C=C\C/C=C\C/C=C\CCCCCCCC(=O)OCC [ethyl 9,12,15-octadecatrienoate] ; mass density = 874.6

Entry CCCCCCCCCCCCCCCCCCCC(=O)OCC [ethyl eicosanoate] ; mass density = 841.2

Entry CC/C=C\C/C=C\C/C=C\CCCCCCCC(=O)OC [methyl (Z,Z,Z)-9,12,15-octadecatrienoate] ; mass density = 883.3

Entry CCCCCCCC/C=C\CCCCCCCCCC(=O)OC [methyl cis-11-eicosenoate] ; mass density = 855.9

Entry CCCCC/C=C\C/C=C\CCCCCCCC(=O)OCC [ethyl linoleate] ; mass density = 864.2

====

conditions: 308.15 K; 101.33 kPa; Liquid; Vibrating tube method
measure: mass density (kg/m3)
Form entry: value (kg/m3) — number only.

Entry CC/C=C\C/C=C\C/C=C\CCCCCCCC(=O)OCC [ethyl 9,12,15-octadecatrienoate] ; mass density = 882

Entry CCCCC/C=C\C/C=C\CCCCCCCC(=O)OCC [ethyl linoleate] ; mass density = 871.5

Entry CCCCCCCC/C=C\CCCCCCCCCCCC(=O)OC [methyl (Z)-13-docosenoate] ; mass density = 860

Entry CCCCCC/C=C\CCCCCCCC(=O)OC [methyl (Z)-9-hexadecenoate] ; mass density = 857.6

Entry CCCCCCCC/C=C\CCCCCCCCCC(=O)OC [methyl cis-11-eicosenoate] ; mass density = 863

Entry CC/C=C\C/C=C\C/C=C\CCCCCCCC(=O)OC [methyl (Z,Z,Z)-9,12,15-octadecatrienoate] ; mass density = 890.7

====

So I've got a bunch of compounds here, and I need their viscosity values.
conditions: 343.15 K; 101.33 kPa; Liquid
Form entry: value (mPa·s) — number only.

Entry CCCCCCCC/C=C\CCCCCCCCCC(=O)OC [methyl cis-11-eicosenoate] ; viscosity = 2.771

Entry CCCCCCCC/C=C\CCCCCCCCCCCC(=O)OC [methyl (Z)-13-docosenoate] ; viscosity = 3.234

Entry CCCCCCCCCCCCCCCCCCCCCCCC(=O)OC [methyl tetracosanoate] ; viscosity = 4.628

Entry CCCCC/C=C\C/C=C\CCCCCCCC(=O)OCC [ethyl linoleate] ; viscosity = 2.075

Entry CC/C=C\C/C=C\C/C=C\CCCCCCCC(=O)OC [methyl (Z,Z,Z)-9,12,15-octadecatrienoate] ; viscosity = 1.817

Entry CC/C=C\C/C=C\C/C=C\CCCCCCCC(=O)OCC [ethyl 9,12,15-octadecatrienoate] ; viscosity = 1.866

Entry CCCCCC/C=C\CCCCCCCC(=O)OC [methyl (Z)-9-hexadecenoate] ; viscosity = 1.595

Entry CCCCCCCCCCCCCCCCCCCC(=O)OC [methyl eicosanoate] ; viscosity = 3.196

Entry CCCCCCCCCCCCCCCCCCCC(=O)OCC [ethyl eicosanoate] ; viscosity = 3.337

Entry CCCCCCCCCCCCCCCCCCCCCC(=O)OC [methyl docosanoate] ; viscosity = 3.866

====

settings: 293.15 K; 101.33 kPa; Liquid; Vibrating tube method
measure: mass density (kg/m3)
Form entry: value (kg/m3) — number only.

Entry CCCCCC/C=C\CCCCCCCC(=O)OC [methyl (Z)-9-hexadecenoate] ; mass density = 869

Entry CCCCC/C=C\C/C=C\CCCCCCCC(=O)OCC [ethyl linoleate] ; mass density = 882.6

Entry CC/C=C\C/C=C\C/C=C\CCCCCCCC(=O)OCC [ethyl 9,12,15-octadecatrienoate] ; mass density = 893.3

Entry CCCCCCCC/C=C\CCCCCCCCCC(=O)OC [methyl cis-11-eicosenoate] ; mass density = 873.8

Entry CC/C=C\C/C=C\C/C=C\CCCCCCCC(=O)OC [methyl (Z,Z,Z)-9,12,15-octadecatrienoate] ; mass density = 901.9

Entry CCCCCCCC/C=C\CCCCCCCCCCCC(=O)OC [methyl (Z)-13-docosenoate] ; mass density = 870.7

====

settings: 368.15 K; 101.33 kPa; Liquid
measure: viscosity (mPa·s)
Form entry: value (mPa·s) — number only.

Entry CCCCCCCCCCCCCCCCCCCC(=O)OC [methyl eicosanoate] ; viscosity = 2.107

Entry CCCCCCCCCCCCCCCCCCCCCC(=O)OC [methyl docosanoate] ; viscosity = 2.502

Entry CCCCCCCCCCCCCCCCCCCC(=O)OCC [ethyl eicosanoate] ; viscosity = 2.196

Entry CC/C=C\C/C=C\C/C=C\CCCCCCCC(=O)OCC [ethyl 9,12,15-octadecatrienoate] ; viscosity = 1.368

Entry CC/C=C\C/C=C\C/C=C\CCCCCCCC(=O)OC [methyl (Z,Z,Z)-9,12,15-octadecatrienoate] ; viscosity = 1.327

Entry CCCCCCCCCCCCCCCCCCCCCCCC(=O)OC [methyl tetracosanoate] ; viscosity = 2.933

Entry CCCCCCCC/C=C\CCCCCCCCCC(=O)OC [methyl cis-11-eicosenoate] ; viscosity = 1.881
